Overview of reported inhibition across a group of molecules:
Target Or Test System: Serine/threonine-protein kinase PLK1 (Homo sapiens)
Experiment Summary: Plk1 polo box domain binding inhibitors, SAR follow-up, biochemical, fluorescence polarization, purchased analogs (AID 1053)
Condition Context: Plk1 PBD fluorescence polarization peptide binding; at 20 µM; hits give high values
Write the answer as a number in %, unit excluded.

Example results:
Ask: Using the record for Cc1ccc(-c2nc3c(=O)n(C)c(=O)nc-3n(C)n2)cc1 , report its inhibition.
Result: 43.1

Ask: Record request: inhibition value, item CCn1nc(-c2ccccc2Cl)nc2c(=O)n(C)c(=O)nc1-2
Result: 43.6

Ask: Given Cn1c(O)c(C(=O)c2ccccc2Cl)c(=O)n(C)c1=O , state its recorded inhibition.
Result: -36.4

Ask: Which inhibition is reported for this molecule? CCn1nc(-c2ccc([N+](=O)[O-])cc2)nc2c(=O)n(C)c(=O)nc1-2
Result: 60.6

Ask: Looking for the measured inhibition of CCOC(=O)c1ccc(N=C(c2ccccc2)c2c(O)n(C)c(=O)n(C)c2=O)cc1 , can you help?
Result: -58.1

Next:
Ask: Which inhibition is listed for O=C1NC(=O)C(=Cc2c3ccccc3cc3ccccc23)C(=O)N1 ?
Result: -41.5

Ask: Given the entry COc1cc(C=C2C(=O)NC(=O)NC2=O)cc(Cl)c1O , report its measured inhibition.
Result: -40.9

src = PubChem BioAssay AID1053
